Tested on: Leishmania (L. major)
Run Description: Leishmania protozoa proliferation inhibition assay
Format: cell-based
Experimental Setup: Table 2; sample concentration 0.008 mg/ml; 48 hours at 27° C.; absorbance 450 nm minus 630 nm
Recorded Metric: OD level (number of viable Leishmania protozoa)
Quick one: just the number, no unit, thanks!

1) CCCC[n+]1ccccc1/C=c1\s/c(=C2/Sc3ccccc3N2C)c(=O)n1CC.[I-] [I (c)]    0.407
2) CCn1c(=Cc2sc3ccc4ccccc4c3[n+]2C)sc(=C2Sc3ccccc3N2C)c1=O.Cc1ccc(S(=O)(=O)[O-])cc1 [IV (g)]    0.121
3) CCCC[n+]1ccc(/C=c2\s/c(=C3/Sc4ccccc4N3C)c(=O)n2CC)cc1.[Br-] [I (b)]    0.335
4) CN1/C(=c2\s/c(=C\c3cccc[n+]3C)n(Cc3ccccc3)c2=O)Sc2ccccc21.Cc1ccc(S(=O)(=O)[O-])cc1 [I (a)]    0.469

Prompt line: Give its OD level (number of viable Leishmania protozoa) value. Item: CCn1c(=O)/c(=C2\Sc3ccccc3N2C)s/c1=C\c1cccc[n+]1Cc1ccc(C(=O)O)cc1.[Br-] [I (d)]
Response line: 0.364

Prompt line: What about CCn1c(=Cc2cc[n+](C)c3ccccc23)sc(=C2Sc3ccccc3N2C)c1=O.Cc1ccc(S(=O)(=O)[O-])cc1 [IV (b)] ?
Response line: 0.380

====

Test system: Leishmania (L. major)
Run Description: Leishmania protozoa proliferation inhibition assay
Format: cell-based
Experimental Setup: Table 2; sample concentration 0.279 mg/ml; 48 hours at 27° C.; absorbance 450 nm minus 630 nm
Assign labels as follows, please: Yes for OD level (number of viable Leishmania protozoa) below 0.04; No for OD level (number of viable Leishmania protozoa) equal to or exceeding 0.04.

# example entries with known answers
1) CCn1c(=O)/c(=C2\Sc3ccccc3N2C)s/c1=C\c1cccc[n+]1Cc1ccc(C(=O)O)cc1.[Br-] [I (d)]    No
2) CCn1c(=Cc2sc3ccc4ccccc4c3[n+]2C)sc(=C2Sc3ccccc3N2C)c1=O.Cc1ccc(S(=O)(=O)[O-])cc1 [IV (g)]    Yes
3) CCCC[n+]1ccccc1/C=c1\s/c(=C2/Sc3ccccc3N2C)c(=O)n1CC.[I-] [I (c)]    No
4) CCn1c(=Cc2cc[n+](C)c3ccccc23)sc(=C2Sc3ccccc3N2C)c1=O.Cc1ccc(S(=O)(=O)[O-])cc1 [IV (b)]    No
5) CCCC[n+]1ccc(/C=c2\s/c(=C3/Sc4ccccc4N3C)c(=O)n2CC)cc1.[Br-] [I (b)]    No

Now take the following molecule into account.
Prompt line: Problem: For the molecule CN1/C(=c2\s/c(=C\c3cccc[n+]3C)n(Cc3ccccc3)c2=O)Sc2ccccc21.Cc1ccc(S(=O)(=O)[O-])cc1 [I (a)] , is OD level (number of viable Leishmania protozoa) under 0.04?
Response line: No

====

Tested on: Leishmania (L. major)
Run Description: Leishmania protozoa proliferation inhibition assay
Assay type: cell-based
Experimental Setup: Table 1; sample concentration 1.6 mg/ml; 48 hours at 27° C.; absorbance 450 nm minus 630 nm
Recorded Metric: OD level (number of viable Leishmania protozoa)

1) CCn1c(=Cc2cccc[n+]2CC)sc(=C2Sc3ccccc3N2C)c1=O.[Cl-]    0.039

Prompt line: Record `CCn1c(=Cc2cc[n+](C)cc2)sc(=C2Sc3ccccc3N2C)c1=O.Cc1ccc(S(=O)(=O)[O-])cc1` : what is its OD level (number of viable Leishmania protozoa) with Leishmania (L. major)?
Response line: 0.551

Prompt line: What about `CCn1c(=Cc2ccc3ccccc3[n+]2C)sc(=C2Sc3ccccc3N2C)c1=O.[I-]` ?
Response line: 0.117

Prompt line: What about `CCN1C(=O)CS/C1=C\c1sc2ccccc2[n+]1CC` ?
Response line: 0.047

Prompt line: What about CCn1c(=Cc2sc3ccccc3[n+]2CC)sc(=c2sc(=C3Sc4ccccc4N3C)c(=O)n2CC)c1=O.[Br-] [IV (e)] ?
Response line: 0.030

Prompt line: What about `C=CCn1c(=Cc2cccc[n+]2C)sc(=C2Sc3ccccc3N2C)c1=O.Cc1ccc(S(=O)(=O)[O-])cc1` ?
Response line: 0.047

Prompt line: What about `CN1/C(=C\c2cccc[n+]2C)Sc2ccccc21` ?
Response line: 0.032

====

Entries and their OD level (number of viable Leishmania protozoa)
System: Leishmania (L. major)
Run Description: Leishmania protozoa proliferation inhibition assay
Assay type: cell-based
Experimental Setup: Table 1; sample concentration 0.64 mg/ml; 48 hours at 27° C.; absorbance 450 nm minus 630 nm
Quick one: just the number, no unit, thanks!

1) CCn1c(=Cc2sc3ccccc3[n+]2CC)sc(=c2sc(=C3Sc4ccccc4N3C)c(=O)n2CC)c1=O.[Br-] [IV (e)]    0.035
2) CCN1C(=O)CS/C1=C\c1sc2ccccc2[n+]1CC    0.145
3) C=CCn1c(=Cc2cccc[n+]2C)sc(=C2Sc3ccccc3N2C)c1=O.Cc1ccc(S(=O)(=O)[O-])cc1    0.095
4) CN1/C(=C\c2cccc[n+]2C)Sc2ccccc21    0.046
5) CCn1c(=Cc2cccc[n+]2CC)sc(=C2Sc3ccccc3N2C)c1=O.[Cl-]    0.086

Prompt line: Give its OD level (number of viable Leishmania protozoa) value. Item: `CCn1c(=Cc2cc[n+](C)cc2)sc(=C2Sc3ccccc3N2C)c1=O.Cc1ccc(S(=O)(=O)[O-])cc1`
Response line: 0.793

Prompt line: What about `CCn1c(=Cc2ccc3ccccc3[n+]2C)sc(=C2Sc3ccccc3N2C)c1=O.[I-]` ?
Response line: 0.158

====

Test system: Leishmania (L. major)
Run Description: Leishmania protozoa proliferation inhibition assay
Type: cell-based
Experimental Setup: Table 3; sample concentration 2.97 mg/ml; 48 hours at 27° C.; absorbance 450 nm minus 630 nm
Assign labels as follows, please: TRUE for OD level (number of viable Leishmania protozoa) below 0.08; FALSE for OD level (number of viable Leishmania protozoa) equal to or exceeding 0.08.

# example entries with known answers
1. CCn1c(=Cc2sc3ccccc3[n+]2C)sc(=C2C=Cc3ccccc3N2C)c1=O.Cc1ccc(S(=O)(=O)[O-])cc1 [IV (d)]    FALSE
2. C=CCn1c(=Cc2cccc[n+]2C)sc(=C2Sc3ccc(Cl)cc3N2C)c1=O.Cc1ccc(S(=O)(=O)[O-])cc1 [IV (h)]    TRUE
3. CCn1c(=Cc2sc3ccccc3[n+]2C)sc(=C2Sc3ccc4ccccc4c3N2C)c1=O.Cc1ccc(S(=O)(=O)[O-])cc1 [IV (m)]    FALSE

Now take the following compound into account.
Prompt line: Problem: For the compound CN1C(=c2sc(=Cc3sc4ccccc4[n+]3C)n(CC3CCCO3)c2=O)Sc2ccccc21.Cc1ccc(S(=O)(=O)[O-])cc1 (centres unmarked) [IV (k)] , is OD level (number of viable Leishmania protozoa) under 0.08?
Response line: FALSE

====

Tested on: Leishmania (L. major)
Run Description: Leishmania protozoa proliferation inhibition assay
Type: cell-based
Experimental Setup: Table 2; sample concentration 0.0007 mg/ml; 48 hours at 27° C.; absorbance 450 nm minus 630 nm
Recorded Metric: OD level (number of viable Leishmania protozoa)
Quick one: just the number, no unit, thanks!

1. CN1/C(=c2\s/c(=C\c3cccc[n+]3C)n(Cc3ccccc3)c2=O)Sc2ccccc21.Cc1ccc(S(=O)(=O)[O-])cc1 [I (a)]    0.361
2. CCCC[n+]1ccccc1/C=c1\s/c(=C2/Sc3ccccc3N2C)c(=O)n1CC.[I-] [I (c)]    0.360
3. CCn1c(=Cc2sc3ccc4ccccc4c3[n+]2C)sc(=C2Sc3ccccc3N2C)c1=O.Cc1ccc(S(=O)(=O)[O-])cc1 [IV (g)]    0.368
4. CCn1c(=Cc2cc[n+](C)c3ccccc23)sc(=C2Sc3ccccc3N2C)c1=O.Cc1ccc(S(=O)(=O)[O-])cc1 [IV (b)]    0.354
5. CCn1c(=O)/c(=C2\Sc3ccccc3N2C)s/c1=C\c1cccc[n+]1Cc1ccc(C(=O)O)cc1.[Br-] [I (d)]    0.359

Prompt line: Give its OD level (number of viable Leishmania protozoa) value. Item: CCCC[n+]1ccc(/C=c2\s/c(=C3/Sc4ccccc4N3C)c(=O)n2CC)cc1.[Br-] [I (b)]
Response line: 0.345

====

System: Leishmania (L. major)
Run Description: Leishmania protozoa proliferation inhibition assay
Assay type: cell-based
Experimental Setup: Table 3; sample concentration 0.2673 mg/ml; 48 hours at 27° C.; absorbance 450 nm minus 630 nm
Recorded Metric: OD level (number of viable Leishmania protozoa)

These solved cases illustrate the format of a correct answer.
1. CCn1c(=Cc2sc3ccccc3[n+]2C)sc(=C2C=Cc3ccccc3N2C)c1=O.Cc1ccc(S(=O)(=O)[O-])cc1    0.348
2. CCn1c(=Cc2cccc[n+]2C)sc(=C2Sc3ccc(Cl)cc3N2C)c1=O.Cc1ccc(S(=O)(=O)[O-])cc1    0.214
3. CCn1c(=Cc2sc3ccccc3[n+]2C)sc(=C2Sc3ccc4ccccc4c3N2C)c1=O.Cc1ccc(S(=O)(=O)[O-])cc1    0.422

Prompt line: Give its OD level (number of viable Leishmania protozoa) value. Item: CN1C(=c2sc(=Cc3sc4ccccc4[n+]3C)n(CC3CCCO3)c2=O)Sc2ccccc21.Cc1ccc(S(=O)(=O)[O-])cc1 (stereo not shown)
Response line: 0.348

Prompt line: What about `C=CCn1c(=Cc2cccc[n+]2C)sc(=C2Sc3ccc(Cl)cc3N2C)c1=O.Cc1ccc(S(=O)(=O)[O-])cc1` ?
Response line: 0.140

Prompt line: What about C[C@@H]1[C@H](O)[C@@H](C)/C=C/C=C/C=C/C=C/C=C/C=C/C=C/[C@H](O[C@@H]2O[C@H](C)[C@@H](O)[C@H](N)[C@@H]2O)C[C@@H]2O[C@](O)(C[C@@H](O)C[C@@H](O)[C@H](O)CC[C@@H](O)C[C@@H](O)CC(=O)O[C@H]1C)C[C@H](O)[C@H]2C(=O)O [Amphotericin B, reference compound] ?
Response line: 0.273

Prompt line: What about CN1C(=c2sc(=Cc3cccc[n+]3C)n(CC3CCCO3)c2=O)Sc2ccc3ccccc3c21.Cc1ccc(S(=O)(=O)[O-])cc1 (stereo not shown) ?
Response line: 0.391
